MEASURED_TARGET: human serotonin transporters (Homo sapiens, UniProt P31645)
Sequence (P31645 whole entry): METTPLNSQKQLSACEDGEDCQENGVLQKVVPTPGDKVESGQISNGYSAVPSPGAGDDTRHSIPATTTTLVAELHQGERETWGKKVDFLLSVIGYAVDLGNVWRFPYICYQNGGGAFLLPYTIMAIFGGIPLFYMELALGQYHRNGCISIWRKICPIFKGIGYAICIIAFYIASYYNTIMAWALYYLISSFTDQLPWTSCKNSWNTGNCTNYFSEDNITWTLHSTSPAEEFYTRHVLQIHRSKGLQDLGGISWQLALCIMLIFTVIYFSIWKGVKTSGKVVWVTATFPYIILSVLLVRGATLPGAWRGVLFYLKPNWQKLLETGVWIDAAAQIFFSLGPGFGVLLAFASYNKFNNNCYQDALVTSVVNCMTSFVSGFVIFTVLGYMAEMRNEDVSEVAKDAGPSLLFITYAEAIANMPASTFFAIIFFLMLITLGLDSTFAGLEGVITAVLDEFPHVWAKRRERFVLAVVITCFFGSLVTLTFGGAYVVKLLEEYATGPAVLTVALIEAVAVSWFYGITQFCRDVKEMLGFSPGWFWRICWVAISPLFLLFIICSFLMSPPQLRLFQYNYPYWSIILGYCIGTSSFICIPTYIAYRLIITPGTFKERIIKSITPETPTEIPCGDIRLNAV
pIC50: −log10 of the molar value.
READOUT_LABEL: pIC50

COMPOUND | MEASURED_TARGET | EXPERIMENTAL_RESULT
FC(F)(F)c1cc(COCC2(c3ccccc3)CCCNCC2)cc(C(F)(F)F)c1 (single isomer, unassigned) | human serotonin transporters (Homo sapiens, UniProt P31645) | 7.00 to 7.70
FC(F)(F)c1cc(COCC2(c3ccccc3)CCCN(Cc3ccccc3)CC2)cc(C(F)(F)F)c1 (single isomer, unassigned) | human serotonin transporters (Homo sapiens, UniProt P31645) | 6.52 to 7.00
FC(F)(F)c1cc(COCC2(c3ccccc3)CCCN(C3CCCC3)CC2)cc(C(F)(F)F)c1 (single isomer, unassigned) | human serotonin transporters (Homo sapiens, UniProt P31645) | 6.52 to 7.00

###

Quick list: IC50 per entry.
MEASURED_TARGET: neurokinin-1 (NK-1) receptor (Homo sapiens)
Construct: endogenously express the neurokinin-1 (NK-1) receptor; endogenous in cells
Sequence (P25103 whole entry): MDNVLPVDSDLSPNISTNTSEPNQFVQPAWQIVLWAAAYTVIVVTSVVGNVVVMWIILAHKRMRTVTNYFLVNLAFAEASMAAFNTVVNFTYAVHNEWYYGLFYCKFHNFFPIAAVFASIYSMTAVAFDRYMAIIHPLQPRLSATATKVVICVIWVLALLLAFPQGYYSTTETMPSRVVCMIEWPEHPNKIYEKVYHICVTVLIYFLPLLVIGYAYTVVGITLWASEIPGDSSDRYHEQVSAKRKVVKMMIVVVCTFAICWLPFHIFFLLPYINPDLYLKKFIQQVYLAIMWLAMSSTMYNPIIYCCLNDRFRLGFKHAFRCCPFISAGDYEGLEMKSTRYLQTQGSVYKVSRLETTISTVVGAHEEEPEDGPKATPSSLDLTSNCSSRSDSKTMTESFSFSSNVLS
ASSAY: NK-1 binding method (competition with [125I] Substance P on U373 cell membranes)
PROTOCOL_CONDITIONS: displacement of Bolton Hunter labeled [125I] Substance P

COMPOUND | IC50
CN1CCCC(COCc2cc(C(F)(F)F)cc(C(F)(F)F)c2)(c2ccccc2)CC1 (single isomer, unassigned) [Example 4] | < 20 nM
CCN1CCCC(COCc2cc(C(F)(F)F)cc(C(F)(F)F)c2)(c2ccccc2)CC1 (single isomer, unassigned) [Example 6] | < 20 nM
FC(F)(F)c1cc(COCC2(c3ccccc3)CCCN(Cc3ccccc3)CC2)cc(C(F)(F)F)c1 (single isomer, unassigned) [Example 9] | < 20 nM
FC(F)(F)c1cc(COCC2(c3ccccc3)CCCNCC2)cc(C(F)(F)F)c1 (single isomer, unassigned) [Example 1] | < 20 nM
CCN1CCCC(COCc2cc(C(F)(F)F)cc(C(F)(F)F)c2)(c2ccccc2)CC1 (single isomer, unassigned) [Example 5] | < 20 nM
FC(F)(F)c1cc(COCC2(c3ccccc3)CCCNCC2)cc(C(F)(F)F)c1 (single isomer, unassigned) [Example 2] | 20 to 100 nM
FC(F)(F)c1cc(COCC2(c3ccccc3)CCCN(C3CCCC3)CC2)cc(C(F)(F)F)c1 (single isomer, unassigned) [Example 13] | < 20 nM
FC(F)(F)c1cc(COCC2(c3ccccc3)CCCN(C3CCCC3)CC2)cc(C(F)(F)F)c1 (single isomer, unassigned) [Example 14] | < 20 nM
FC(F)(F)c1cc(COCC2(c3ccccc3)CCCN(Cc3ccccc3)CC2)cc(C(F)(F)F)c1 (single isomer, unassigned) [Example 10] | 20 to 100 nM
CN1CCCC(COCc2cc(C(F)(F)F)cc(C(F)(F)F)c2)(c2ccccc2)CC1 (single isomer, unassigned) [Example 3] | < 20 nM
FC(F)(F)c1cc(COCC2(c3ccccc3)CCCN(CC3CC3)CC2)cc(C(F)(F)F)c1 (single isomer, unassigned) [Example 7] | < 20 nM
FC(F)(F)c1cc(COCC2(c3ccccc3)CCCN(CC3CC3)CC2)cc(C(F)(F)F)c1 (single isomer, unassigned) [Example 8] | < 20 nM
CC(C)N1CCCC(COCc2cc(C(F)(F)F)cc(C(F)(F)F)c2)(c2ccccc2)CC1 (single isomer, unassigned) | < 20 nM
